System: KM12 colon
Test: NCI tumour cell line growth inhibition, 48 h
# reported TGI; entries follow

Would you kindly share the measured TGI for CC1=Nc2ccccc2SC(c2c(Cl)cccc2Cl)C1 (stereo not given) ?
2.15 µM

I'd like to know its TGI. The molecule in question is CC(C)(C)C(=O)Oc1ccc(/C=C/C(=O)c2ccc(OC(=O)C(C)(C)C)cc2)cc1
38.5 µM

Please report the recorded TGI for Nc1ccc(-c2nc3ccc(F)cc3s2)cc1Cl .
> 100 µM

Reported TGI, molecule CCOc1cc(/C=C/C(=O)C(C(=O)/C=C/c2ccc(OC(=O)CNc3nc4ccccc4[nH]3)c(OCC)c2)C(=O)CNc2nc3ccccc3[nH]2)ccc1OC(=O)CNc1nc2ccccc2[nH]1 : ____
3.26 µM

GET /values?readout=TGI&item= CCOC(=O)c1sc(-c2ccc(OS(=O)(=O)C[C@]34CCC(CC3=O)C4(C)C)c(C=O)c2)nc1C
3.54 µM

TGI lookup needed for O=C(Cn1cc(Br)c(=O)[nH]c1=O)c1ccc(-c2ccccc2)cc1 , thanks.
> 26.3 µM

Continuing:
Recorded TGI for COc1ccc(-c2c(-c3ccccc3)c(C)c3ccccn23)cc1 , please?
> 100 µM

// data source = PubChem BioAssay (NCI)
